system.tested: T1, human CD4 on cells (SKW3 cells; human PBMCs) (human, UniProt P01730 26-458)
T1 construct: whole, on cells; SKW3 CD4 knockout cells served as the negative cell line; also called hCD4
assay: FACS confirmation, supernatant on human PBMCs, anti-mouse Fc 647, CD4+ gate
Entries and their PBMCs, anti-mFc 647 CD4+ gate - RL1 Binding values follow.
Please give the numeric answer without any surrounding text.

- 75110_01K10A (antibody, V domains shown, Tested as non-clonal AlivaMab Mouse Kappa hybridoma supernatant: human variable domains and human kappa, mouse Fc) VH: EVQLVESGGALVQPGGSLRLSCAASGFTFRNYDMHWVRQATGKGLEWVSTIGTAGDTYYPGSVKGRFTISRENAKNSLYLQMNSLRAGDTAVYYCARGGDYYYGMDVWGQGTTVTVSS VL: EIVLTQSPDTLSLSPGERATLSCRASQSLSSVYLAWYQQKPGQAPRLLIYGASSRATGIPDRFSGTGSGTDFTLTISRLEPEDFAVYYCQQYGSSPFTFGPGTKVDIK: 283000

Return PBMCs, anti-mFc 647 CD4+ gate - RL1 Binding (reported value) for this binder: 75110_07B16A (antibody, IgG1, V domains shown, Tested as non-clonal AlivaMab Mouse Kappa hybridoma supernatant: human variable domains and human kappa, mouse Fc) VH: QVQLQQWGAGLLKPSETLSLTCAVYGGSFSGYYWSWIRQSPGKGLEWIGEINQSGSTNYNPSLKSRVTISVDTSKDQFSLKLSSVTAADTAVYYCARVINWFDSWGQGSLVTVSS VL: DIQMTQSPSSVSASVGDRVTITCRASQGISSWLAWYQQKPGKAPKLLIYDASSFQSGVPSRFSGSGSGTDFTLTISSLQTDDFATYYCQQANSFPYTFGQGTKLEIK
274000

Return PBMCs, anti-mFc 647 CD4+ gate - RL1 Binding (reported value) for this binder: 75110_12C19A (antibody, IgG1, V domains shown, Tested as non-clonal AlivaMab Mouse Kappa hybridoma supernatant: human variable domains and human kappa, mouse Fc) VH: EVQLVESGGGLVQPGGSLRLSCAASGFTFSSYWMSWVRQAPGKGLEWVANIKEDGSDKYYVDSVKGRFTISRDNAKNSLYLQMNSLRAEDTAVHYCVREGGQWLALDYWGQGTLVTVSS VL: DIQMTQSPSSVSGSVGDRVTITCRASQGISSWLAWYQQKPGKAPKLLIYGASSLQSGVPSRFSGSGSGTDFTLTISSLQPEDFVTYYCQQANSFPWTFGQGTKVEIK
341000
